B1: library; numbered along this chain (parent)
chain: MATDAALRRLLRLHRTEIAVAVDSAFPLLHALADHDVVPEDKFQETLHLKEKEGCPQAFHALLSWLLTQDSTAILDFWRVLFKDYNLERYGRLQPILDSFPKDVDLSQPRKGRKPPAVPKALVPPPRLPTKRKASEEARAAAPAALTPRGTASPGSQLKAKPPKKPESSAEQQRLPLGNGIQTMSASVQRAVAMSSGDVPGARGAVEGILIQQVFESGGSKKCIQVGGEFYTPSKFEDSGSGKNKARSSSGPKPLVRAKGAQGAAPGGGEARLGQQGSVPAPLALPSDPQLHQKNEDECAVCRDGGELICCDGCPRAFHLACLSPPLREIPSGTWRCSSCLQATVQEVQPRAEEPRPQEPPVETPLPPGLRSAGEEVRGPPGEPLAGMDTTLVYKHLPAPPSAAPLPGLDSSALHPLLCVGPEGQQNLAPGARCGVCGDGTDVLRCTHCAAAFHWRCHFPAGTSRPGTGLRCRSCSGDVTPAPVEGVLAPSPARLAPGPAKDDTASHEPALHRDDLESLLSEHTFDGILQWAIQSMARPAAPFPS

# Variants of: B1
# procedureSummary: AIRE transcriptional activation functional score (insulin promoter-GFP; nonsense median 0, synonymous median 1) (normalised score); higher = higher AIRE activity (more reporter activation)
# conditions: with insulin promoter-GFP reporter in HEK293
Answer false if AIRE transcriptional activation functional score is under 0.9, and true if it is 0.9 or more.

mutantName	classification
T504G	true
H448S	false
K259E	false
I309Y	true
E329R	true
Q172R	true
P492Q	false
N244E	false
A142S	true
A186T	false
P481N	false
R149I	false
P430W	true
E359H	true
D105T	false
C434L	false
H523T	true
R132L	false
L122R	false
P124H	true
E237V	true
D515N	false
